I'd be grateful if you could share measured protein stability index for these entries.
B1: VPS39 (parent)
chain: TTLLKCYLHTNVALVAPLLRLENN

Variants of: B1
TEST METHOD NOTES: protein stability index of a GFP-peptide fusion (GPS, HEK-293T) (PSI 1-6); higher = more stable;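 note: lentivirally expressed fusions sorted by FACS into six bins by GFP to DsRed ratio, PSI derived from sequencing read proportions per bin multiplied by bin number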
TEST PARAMETERS: c terminus: a fixed tail appended

Request: Any idea what its protein stability index is? The variant is Y7H
Response: 3.18

Request: Can you handle L19G next?
Response: 1.97

Request: Can you handle L3I next?
Response: 2.18
